readout type: melting point

Reference set (2 entries):
{"columns": ["compound", "result value"],
 "data": [
  ["CCC(=O)Nc1cc(S(=O)(=O)c2ccccc2)ccc1NC(=NC(=O)OC)NC(=O)OC", "137 °C"],
  ["Nc1nccc(Oc2ccc3c(C(=O)Nc4cccc(C(F)(F)F)c4)cnn3c2)n1", "102 to 104 °C"]
]}

Q) Which value of melting point has been reported for NC(N)=Nc1nc(N2CCOCC2)nc2ccccc12 in the records?
A) 197 °C

Q) Which value of melting point has been reported for COc1cnc(N2CCN(c3ccc(-n4c(C)n[nH]c4=O)cc3)CC2)nc1 in the records?
A) > 300 °C

Q) Which value of melting point has been reported for C=CCOC1CC2C3CCC4=CC(=O)CCC4(C)C3(F)C(O)CC2(C)C1(O)C(=O)CCl (stereo not given) in the records?
A) 224 to 225 °C

Q) Which value of melting point has been reported for O=C(NC=Cc1ccc(O)cc1)c1ccc(Cl)cc1 in the records?
A) 243 to 244 °C

Q) Which value of melting point has been reported for COc1cc2c(-c3cc4cccnc4[nH]3)cn(C)c2cc1O in the records?
A) 250 °C

Q) Which value of melting point has been reported for CCc1c(C(=O)NN2CCCCC2)nn(-c2ccc(Cl)cc2Cl)c1-c1ccc(Br)cc1 in the records?
A) 112 to 115 °C
